- target entity: T1, human EphA4 (binding to human Ephrin A5) (Homo sapiens, UniProt P54764)
- T1 construct: made in house; not restated for the human SEAP-His protein
- T1 sequence (P54764 20-547): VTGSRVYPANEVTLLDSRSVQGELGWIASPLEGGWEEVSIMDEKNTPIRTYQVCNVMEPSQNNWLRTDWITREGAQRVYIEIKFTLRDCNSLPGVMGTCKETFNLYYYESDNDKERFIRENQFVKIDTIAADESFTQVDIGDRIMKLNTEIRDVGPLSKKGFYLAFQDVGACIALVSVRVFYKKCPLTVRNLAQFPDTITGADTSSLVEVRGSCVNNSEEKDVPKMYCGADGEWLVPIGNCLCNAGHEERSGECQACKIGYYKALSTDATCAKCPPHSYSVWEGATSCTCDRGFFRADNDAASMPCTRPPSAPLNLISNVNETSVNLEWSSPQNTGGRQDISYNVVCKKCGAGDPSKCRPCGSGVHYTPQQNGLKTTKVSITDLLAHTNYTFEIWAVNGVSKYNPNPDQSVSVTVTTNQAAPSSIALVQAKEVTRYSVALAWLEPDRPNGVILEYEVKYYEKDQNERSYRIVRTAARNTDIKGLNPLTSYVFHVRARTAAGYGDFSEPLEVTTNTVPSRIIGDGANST
- measurement protocol: Human EphA4-human ligand binding inhibition ELISA of humanized antibodies (biotinylated Ephrin A5-Fc)
- experimental setup: biotinylated human Ephrin A5-Fc 0.7 nM
attribute measured: pIC50
Scale note: pIC50 = -log10(concentration in M).

Worked examples follow.
# molecule, pIC50
rows = [
    ("84 (antibody, V domains shown, constant regions without entry; synthetic humanized antibody light chain variable region sequence; synthetic humanized antibody heavy chain variable region sequence) VL: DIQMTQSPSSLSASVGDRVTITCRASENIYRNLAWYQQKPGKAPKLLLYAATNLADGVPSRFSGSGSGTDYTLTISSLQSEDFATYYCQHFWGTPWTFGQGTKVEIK VH: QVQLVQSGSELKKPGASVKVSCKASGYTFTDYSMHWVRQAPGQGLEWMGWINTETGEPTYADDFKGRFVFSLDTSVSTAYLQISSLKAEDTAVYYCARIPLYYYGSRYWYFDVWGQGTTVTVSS", 8.34),
    ("76 (antibody, V domains shown, synthetic humanized antibody heavy chain variable region sequence; synthetic humanized antibody light chain variable region sequence) VH: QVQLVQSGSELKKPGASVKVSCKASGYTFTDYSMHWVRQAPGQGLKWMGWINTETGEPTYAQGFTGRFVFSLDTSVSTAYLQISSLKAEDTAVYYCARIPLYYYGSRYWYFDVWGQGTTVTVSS VL: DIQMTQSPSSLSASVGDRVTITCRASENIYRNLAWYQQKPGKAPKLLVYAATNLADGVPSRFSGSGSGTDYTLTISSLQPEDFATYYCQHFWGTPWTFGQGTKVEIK", 8.54),
    ("88 (antibody, V domains shown, constant regions without entry; synthetic humanized antibody light chain variable region sequence; synthetic humanized antibody heavy chain variable region sequence) VL: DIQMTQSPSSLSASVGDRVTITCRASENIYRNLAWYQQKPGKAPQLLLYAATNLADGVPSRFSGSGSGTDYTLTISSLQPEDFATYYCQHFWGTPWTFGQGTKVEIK VH: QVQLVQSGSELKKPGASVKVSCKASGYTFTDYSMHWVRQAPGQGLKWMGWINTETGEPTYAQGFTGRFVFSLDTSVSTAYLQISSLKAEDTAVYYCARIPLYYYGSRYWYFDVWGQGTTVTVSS", 8.44),
]

Entry 85 (antibody, V domains shown, constant regions without entry; synthetic humanized antibody light chain variable region sequence; synthetic humanized antibody heavy chain variable region sequence) VL: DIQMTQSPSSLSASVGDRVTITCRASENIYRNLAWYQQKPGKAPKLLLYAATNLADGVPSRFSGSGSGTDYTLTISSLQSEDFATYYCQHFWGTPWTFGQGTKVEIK VH: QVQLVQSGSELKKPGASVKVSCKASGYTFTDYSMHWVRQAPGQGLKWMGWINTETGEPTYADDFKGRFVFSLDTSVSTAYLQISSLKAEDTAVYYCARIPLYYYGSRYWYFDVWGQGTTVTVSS : reported pIC50 = ?
8.40

Where do the numbers come from? From patent US10428140B2.
